System: HOP-92 NSCLC
Assay procedure: NCI tumour cell line growth inhibition, 48 h; in the data active = GI50 below about 0.43 µM; inactive = the rest
Classes used: Yes = active, No = inactive

{"columns": ["Compound", "Assigned label"],
 "data": [
  ["CN1CCN(Cc2ccc(NC(=O)c3cncc(C#Cc4ccc(N)nc4)c3)cc2C(F)(F)F)CC1", "Yes"],
  ["c1ccc2c(N=NSc3ncnc4nc[nH]c34)c3ccccc3nc2c1", "No"],
  ["NC1CC(=O)c2c(-c3cccs3)sc(-c3cccs3)c21 (stereo not drawn)", "No"],
  ["COC(=O)[C@]1(C)CCC[C@@]2(C)C3=C(CC[C@H]12)C[C@@H](CC(OC(C)=O)OC(C)=O)[C@@H](C)C3", "No"],
  ["Cc1nnc(N/N=C/c2ccc([N+](=O)[O-])o2)[nH]c1=O", "Yes"],
  ["COc1cccc(N2CC(O)=C(c3nc4ccccc4s3)C2=N)c1", "No"],
  ["O=C(Nc1nc2c(C(F)(F)F)cccc2s1)c1cc(Cl)ccc1O", "Yes"],
  ["C[C@@H]1CC[C@@H]2[C@@H]1[C@H](OC(=O)/C=C/C1CCCCC1)[C@]1(C3CCCCC3)C[C@@H](OC(=O)CO)[C@@]2(C)O1", "No"],
  ["CC1=CC2(C)/C=C(C)/C=C\\CC(O)/C=C3/C=CC(=C4C(=O)OC2(CC1C)C4=O)OC3 (stereo not drawn)", "No"],
  ["COC(=O)Nc1nc2ccc(C(=O)c3cccc(I)c3)cc2[nH]1", "Yes"],
  ["COc1cc2c(cc1OCC(=O)Nc1ccc(Cl)cc1C(=O)c1ccccc1Cl)N=CC1CCCN1C2=O (stereo not drawn)", "No"],
  ["CCN1CCN(c2ccc(NC(=O)Nc3nc4ccc(-c5ccccc5OC)cc4s3)cc2)CC1", "No"],
  ["Cc1ccc2sc3c(NCCCN)nc4ccccc4c3c(=O)c2c1", "No"]
]}

###

System: SNB-75 CNS
Assay procedure: NCI tumour cell line growth inhibition, 48 h; in the data active means GI50 below about 0.43 µM; inactive means the rest
Labels: active, inactive

{"columns": ["Molecule", "Experimental target", "Assigned label"],
 "data": [
  ["Nc1nc(N)c2c(ccc3c2ccn3Cc2cccc([N+](=O)[O-])c2)n1", "SNB-75 CNS", "inactive"],
  ["COc1cc2ncnc(Oc3ccc(NC(=O)Nc4ccc(CN5CCOCC5)c(C(F)(F)F)c4)c4ccccc34)c2cc1OC", "SNB-75 CNS", "inactive"],
  ["CC(C)[C@@H](C(=O)O[C@@H]1/C=C/C(=O)O[C@@H](C)CCC/C=C/[C@@H]2C[C@H](O)C[C@H]21)N(C)C", "SNB-75 CNS", "inactive"],
  ["CCOC(=O)C1=C(Nc2ccc(OC)cc2)C(N)=NC1=N", "SNB-75 CNS", "inactive"],
  ["CC1Cc2c(Cl)ncnc2N(C)c2ccccc21 (centres undefined)", "SNB-75 CNS", "active"],
  ["CCC[CH2][Sn]1([CH2]CCC)[O]C(=O)c2cccc([N+](=O)[O-])c2C(=O)[O]1", "SNB-75 CNS", "active"],
  ["COc1ccc(C(=O)/C=C/c2ccc(OCc3cccc(C(F)(F)F)c3)c(OC)c2)cc1OC", "SNB-75 CNS", "inactive"],
  ["CCN(CC)CCOc1nc2ccccc2c2c1-c1ccc(OC)cc1C2=O", "SNB-75 CNS", "inactive"],
  ["CN1C(=O)N(C)C2C1NC(=S)N2/N=C/C=C/c1ccccc1[N+](=O)[O-] (centres undefined)", "SNB-75 CNS", "active"]
]}
